System: Escherichia coli TOP10
Test: shrunken log2 fold change of peptide-encoding DNA abundance (4.5 h post-induction vs induction); higher = less antimicrobial activity (less host growth inhibition)
Conditions: time post-induction: 4.5 h; library: site-saturation at positions 5, 18, 19, 20
Measured property: shrunken log2 fold change
Please respond with just the number, no unit label.

Some sequences with recorded shrunken log2 fold change:
RRIRHRPPRLPRPRPRPLCFPRP = -0.243
RRIRGRPPRLPRPRPRPKCSPRP = 0.704
RRIRIRPPRLPRPRPRPPMLPRP = -0.382

// query Provide value of shrunken log2 fold change for this record tested with Escherichia coli TOP10: RRIRSRPPRLPRPRPRPFGWPRP
// result 0.0625

// query Provide value of shrunken log2 fold change for this record tested with Escherichia coli TOP10: RRIRSRPPRLPRPRPRPFPQPRP
// result -0.201

// query Provide value of shrunken log2 fold change for this record tested with Escherichia coli TOP10: RRIRARPPRLPRPRPRPPVMPRP
// result 0.395

// query Provide value of shrunken log2 fold change for this record tested with Escherichia coli TOP10: RRIRLRPPRLPRPRPRPCSAPRP
// result -0.372

// query Provide value of shrunken log2 fold change for this record tested with Escherichia coli TOP10: RRIRGRPPRLPRPRPRPYNEPRP
// result -0.329

====

Test system: Escherichia coli TOP10
Test: shrunken log2 fold change of peptide-encoding DNA abundance (4.5 h post-induction vs induction); higher = less antimicrobial activity (less host growth inhibition)
Conditions: time post-induction: 4.5 h; library: site-saturation at positions 5, 18, 19, 20
Classification field: enter class 1 for shrunken log2 fold change values not below -0.06, class 0 for values below it.

RRIRSRPPRLPRPRPRPMFGPRP = class 0
RRIRLRPPRLPRPRPRPAQNPRP = class 1
RRIRFRPPRLPRPRPRPTEWPRP = class 1

// query Identify whether the reported shrunken log2 fold change of the following sequence is -0.06 or greater: RRIRHRPPRLPRPRPRPMVVPRP
// result class 1

====

Tested on: Escherichia coli TOP10
Test: shrunken log2 fold change of peptide-encoding DNA abundance (4.5 h post-induction vs induction); higher = less antimicrobial activity (less host growth inhibition)
Details: time post-induction: 4.5 h; library: site-saturation at positions 5, 18, 19, 20
Classification field: enter Fulfilled for shrunken log2 fold change values not below 0.04, Not fulfilled for values below it.

Solved cases (5 shown):
RRIRGRPPRLPRPRPRPLPFPRP = Not fulfilled
RRIRDRPPRLPRPRPRPSELPRP = Not fulfilled
RRIRCRPPRLPRPRPRPSPIPRP = Not fulfilled
RRIRSRPPRLPRPRPRPQCMPRP = Not fulfilled
RRIRPRPPRLPRPRPRPYRIPRP = Not fulfilled

// query Identify whether the reported shrunken log2 fold change of the following sequence is 0.04 or greater: RRIRPRPPRLPRPRPRPIMCPRP
// result Not fulfilled

// query Identify whether the reported shrunken log2 fold change of the following sequence is 0.04 or greater: RRIRGRPPRLPRPRPRPPRGPRP
// result Fulfilled

// query Identify whether the reported shrunken log2 fold change of the following sequence is 0.04 or greater: RRIRRRPPRLPRPRPRPWDSPRP
// result Fulfilled

====

System: Escherichia coli TOP10
Test: shrunken log2 fold change of peptide-encoding DNA abundance (4.5 h post-induction vs induction); higher = less antimicrobial activity (less host growth inhibition)
Conditions: time post-induction: 4.5 h; library: site-saturation at positions 5, 18, 19, 20
Measured property: shrunken log2 fold change

Some sequences with recorded shrunken log2 fold change:
RRIRCRPPRLPRPRPRPVQKPRP = -0.0201
RRIRQRPPRLPRPRPRPQLDPRP = 0.188
RRIRDRPPRLPRPRPRPAHHPRP = 0.113
RRIRLRPPRLPRPRPRPVDNPRP = -0.491
RRIRQRPPRLPRPRPRPNYYPRP = -0.611

// query Provide value of shrunken log2 fold change for this record tested with Escherichia coli TOP10: RRIRRRPPRLPRPRPRPNQQPRP
// result -0.0676

// query Provide value of shrunken log2 fold change for this record tested with Escherichia coli TOP10: RRIRCRPPRLPRPRPRPLIYPRP
// result -0.764

====

Test system: Escherichia coli TOP10
Test: shrunken log2 fold change of peptide-encoding DNA abundance (4.5 h post-induction vs induction); higher = less antimicrobial activity (less host growth inhibition)
Settings: time post-induction: 4.5 h; library: site-saturation at positions 5, 18, 19, 20
Classification field: enter 1 for shrunken log2 fold change values not below 0.02, 0 for values below it.

Solved cases (6 shown):
RRIRQRPPRLPRPRPRPLILPRP = 0
RRIRYRPPRLPRPRPRPLKNPRP = 0
RRIRHRPPRLPRPRPRPYACPRP = 0
RRIRRRPPRLPRPRPRPNDCPRP = 1
RRIRNRPPRLPRPRPRPWQIPRP = 0
RRIRKRPPRLPRPRPRPKCQPRP = 1

API: the following record is the query input.
// query Identify whether the reported shrunken log2 fold change of the following sequence is 0.02 or greater: RRIRKRPPRLPRPRPRPPDEPRP
// result 1

====

System: Escherichia coli TOP10
Assay: shrunken log2 fold change of peptide-encoding DNA abundance (4.5 h post-induction vs induction); higher = less antimicrobial activity (less host growth inhibition)
Settings: time post-induction: 4.5 h; library: site-saturation at positions 5, 18, 19, 20
Below: a set of entries, each annotated with reported shrunken log2 fold change.
Please respond with just the number, no unit label.

Some sequences with recorded shrunken log2 fold change:
RRIRGRPPRLPRPRPRPGFMPRP = 0.488
RRIRGRPPRLPRPRPRPVFQPRP = 0.519

// query Provide value of shrunken log2 fold change for this record tested with Escherichia coli TOP10: RRIRERPPRLPRPRPRPGYQPRP
// result -0.00905

// query Provide value of shrunken log2 fold change for this record tested with Escherichia coli TOP10: RRIRQRPPRLPRPRPRPAPTPRP
// result 0.709

// query Provide value of shrunken log2 fold change for this record tested with Escherichia coli TOP10: RRIRPRPPRLPRPRPRPHLIPRP
// result -0.287

// query Provide value of shrunken log2 fold change for this record tested with Escherichia coli TOP10: RRIRIRPPRLPRPRPRPVFYPRP
// result -0.333

// query Provide value of shrunken log2 fold change for this record tested with Escherichia coli TOP10: RRIRIRPPRLPRPRPRPIAHPRP
// result -0.358

// query Provide value of shrunken log2 fold change for this record tested with Escherichia coli TOP10: RRIRVRPPRLPRPRPRPPIMPRP
// result -0.486

// query Provide value of shrunken log2 fold change for this record tested with Escherichia coli TOP10: RRIRFRPPRLPRPRPRPLHWPRP
// result 0.0916

// query Provide value of shrunken log2 fold change for this record tested with Escherichia coli TOP10: RRIRCRPPRLPRPRPRPNDHPRP
// result -0.716

// query Provide value of shrunken log2 fold change for this record tested with Escherichia coli TOP10: RRIRIRPPRLPRPRPRPVWSPRP
// result 0.0432

// query Provide value of shrunken log2 fold change for this record tested with Escherichia coli TOP10: RRIRFRPPRLPRPRPRPLTFPRP
// result -0.391

// query Provide value of shrunken log2 fold change for this record tested with Escherichia coli TOP10: RRIRGRPPRLPRPRPRPDMTPRP
// result 3.09

// query Provide value of shrunken log2 fold change for this record tested with Escherichia coli TOP10: RRIRLRPPRLPRPRPRPVNWPRP
// result 0.0772

// query Provide value of shrunken log2 fold change for this record tested with Escherichia coli TOP10: RRIRQRPPRLPRPRPRPEITPRP
// result 0.0276

// query Provide value of shrunken log2 fold change for this record tested with Escherichia coli TOP10: RRIRVRPPRLPRPRPRPFTSPRP
// result -0.0104

// query Provide value of shrunken log2 fold change for this record tested with Escherichia coli TOP10: RRIRTRPPRLPRPRPRPNHKPRP
// result -0.443

====

Tested on: Escherichia coli TOP10;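 note: peptides expressed intracellularly from a pBAD plasmid library in pooled LB shake-flask culture, induced with 0.3% L-arabinose, DNA abundance read by NGS, three biological replicates, DESeq2 with apeglm shrinkage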
Test: shrunken log2 fold change of peptide-encoding DNA abundance (4.5 h post-induction vs induction); higher = less antimicrobial activity (less host growth inhibition)
Conditions: time post-induction: 4.5 h; library: site-saturation at positions 5, 18, 19, 20
Measured property: shrunken log2 fold change
Please respond with just the number, no unit label.

Some sequences with recorded shrunken log2 fold change:
RRIRWRPPRLPRPRPRPKAEPRP = -0.015
RRIRRRPPRLPRPRPRPYGKPRP = -0.813
RRIRMRPPRLPRPRPRPGWRPRP = 1.15
RRIRTRPPRLPRPRPRPQYHPRP = -0.329
RRIRMRPPRLPRPRPRPYCQPRP = -0.0783
RRIRDRPPRLPRPRPRPTVLPRP = 0.306
RRIRQRPPRLPRPRPRPDRAPRP = 0.12
RRIRIRPPRLPRPRPRPVEDPRP = -0.158
RRIRNRPPRLPRPRPRPIYVPRP = -0.892
RRIRMRPPRLPRPRPRPFITPRP = -0.456

// query Which shrunken log2 fold change is reported for this sequence? RRIRNRPPRLPRPRPRPCVIPRP
// result -0.318

// query Which shrunken log2 fold change is reported for this sequence? RRIRERPPRLPRPRPRPANVPRP
// result -0.0342

// query Which shrunken log2 fold change is reported for this sequence? RRIRKRPPRLPRPRPRPLACPRP
// result -0.0149

// query Which shrunken log2 fold change is reported for this sequence? RRIRCRPPRLPRPRPRPEAKPRP
// result 0.208

// query Which shrunken log2 fold change is reported for this sequence? RRIRMRPPRLPRPRPRPKNIPRP
// result -0.232

// query Which shrunken log2 fold change is reported for this sequence? RRIRIRPPRLPRPRPRPPTFPRP
// result -0.166

// query Which shrunken log2 fold change is reported for this sequence? RRIRWRPPRLPRPRPRPFITPRP
// result -0.167

// query Which shrunken log2 fold change is reported for this sequence? RRIRYRPPRLPRPRPRPSVVPRP
// result -0.844
